B1: glmS ribozyme (parent)
chain: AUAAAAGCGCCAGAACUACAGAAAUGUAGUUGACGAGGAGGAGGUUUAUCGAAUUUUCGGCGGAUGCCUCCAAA

- Variants of: B1
- measurement_description: self-cleavage kobs at 10000 uM GlcN6P; higher = faster cleavage; RNA array
- condition_notes: with glucosamine-6-phosphate
This sample holds only a part of the variants without activity.
Task for the reader: assign each of the following variants its reported self-cleavage kobs at 10000 uM GlcN6P.
A number alone suffices; assume s⁻¹.

q: Request the reported self-cleavage kobs at 10000 uM GlcN6P associated with G9U C61G
a: 0.00016

q: Request the reported self-cleavage kobs at 10000 uM GlcN6P associated with G13A G66A
a: 0.000241

q: Request the reported self-cleavage kobs at 10000 uM GlcN6P associated with G44U U46G
a: 0.000146

q: Request the reported self-cleavage kobs at 10000 uM GlcN6P associated with A14U A15C C68U
a: 6.11e-05

q: Request the reported self-cleavage kobs at 10000 uM GlcN6P associated with U56A A64C
a: 5.71e-05

q: Request the reported self-cleavage kobs at 10000 uM GlcN6P associated with C16A G29U
a: 0.0387

q: Request the reported self-cleavage kobs at 10000 uM GlcN6P associated with C11U U65G
a: 0.000227

q: Request the reported self-cleavage kobs at 10000 uM GlcN6P associated with U31G C58A
a: 0.000163

q: Request the reported self-cleavage kobs at 10000 uM GlcN6P associated with G29C U56G C70U
a: 0.00013

q: Request the reported self-cleavage kobs at 10000 uM GlcN6P associated with U56G U65G
a: 0.00218

q: Request the reported self-cleavage kobs at 10000 uM GlcN6P associated with A48C U55C
a: 0.00029

q: Request the reported self-cleavage kobs at 10000 uM GlcN6P associated with G29C G32C
a: 9.51e-05

q: Request the reported self-cleavage kobs at 10000 uM GlcN6P associated with U56A C70U
a: 0.0156

q: Request the reported self-cleavage kobs at 10000 uM GlcN6P associated with G32U G40C
a: 8.66e-05

q: Request the reported self-cleavage kobs at 10000 uM GlcN6P associated with G41U A52U U55A C70U
a: 9.97e-05
